Target: Chymotrypsin (Bos taurus, UniProt P00766)
Experiment: Esterase assay, chymotrypsin
Type: biochemical
Conditions: Z-AX-OMe substrate, X = P1 residue; rates approximately ± 10%
Where a SMILES comes first, the peptide text is derived from it. The star is where a group is joined. Cbz = O=C(OCc1ccccc1)*
measure.name: Esterase rate, Chymotrypsin

> print(dat)
                                    compound                           subject.of.test                 measure.name                             result
 1  COC(=O)[C@H](CCC(=O)O)NC(=O)[C@H](C)NC(=O)OCc1ccccc1 [Glu] (Cbz-Ala-Glu-OMe)  Chymotrypsin (Bos taurus, UniProt P00766)  Esterase rate, Chymotrypsin     0 A580 change/min./mg protease
 2  COC(=O)[C@H](CC(N)=O)NC(=O)[C@H](C)NC(=O)OCc1ccccc1 [Asn] (Cbz-Ala-Asn-OMe)  Chymotrypsin (Bos taurus, UniProt P00766)  Esterase rate, Chymotrypsin   0.3 A580 change/min./mg protease
 3  CC[C@H](C)[C@H](NC(=O)[C@H](C)NC(=O)OCc1ccccc1)C(=O)OC [Ile] (Cbz-Ala-Ile-OMe)  Chymotrypsin (Bos taurus, UniProt P00766)  Esterase rate, Chymotrypsin     0 A580 change/min./mg protease
 4  COC(=O)[C@H](CS)NC(=O)[C@H](C)NC(=O)OCc1ccccc1 [Cys] (Cbz-Ala-Cys-OMe)  Chymotrypsin (Bos taurus, UniProt P00766)  Esterase rate, Chymotrypsin   0.4 A580 change/min./mg protease
 5  COC(=O)[C@H](C)NC(=O)[C@H](C)NC(=O)OCc1ccccc1 [Ala] (Cbz-Ala-Ala-OMe)  Chymotrypsin (Bos taurus, UniProt P00766)  Esterase rate, Chymotrypsin                              trace
 6  COC(=O)[C@H](CC(C)C)NC(=O)[C@H](C)NC(=O)OCc1ccccc1 [Leu] (Cbz-Ala-Leu-OMe)  Chymotrypsin (Bos taurus, UniProt P00766)  Esterase rate, Chymotrypsin   2.4 A580 change/min./mg protease
 7  COC(=O)[C@H](Cc1ccccc1)NC(=O)[C@H](C)NC(=O)OCc1ccccc1  Chymotrypsin (Bos taurus, UniProt P00766)  Esterase rate, Chymotrypsin  37.8 A580 change/min./mg protease
 8  COC(=O)[C@H](CCCNC(=N)N)NC(=O)[C@H](C)NC(=O)OCc1ccccc1 [Arg, Z-Ala-Arg-OMe] (Cbz-Ala-Arg-OMe)  Chymotrypsin (Bos taurus, UniProt P00766)  Esterase rate, Chymotrypsin   1.1 A580 change/min./mg protease
 9  COC(=O)[C@H](Cc1ccc(O)cc1)NC(=O)[C@H](C)NC(=O)OCc1ccccc1 [Tyr, Z-Ala-Tyr-OMe] (Cbz-Ala-Tyr-OMe)  Chymotrypsin (Bos taurus, UniProt P00766)  Esterase rate, Chymotrypsin  55.2 A580 change/min./mg protease
10  COC(=O)[C@H](Cc1cnc[nH]1)NC(=O)[C@H](C)NC(=O)OCc1ccccc1 [His] (Cbz-Ala-His-OMe)  Chymotrypsin (Bos taurus, UniProt P00766)  Esterase rate, Chymotrypsin   1.5 A580 change/min./mg protease
11  COC(=O)[C@H](CCCCN)NC(=O)[C@H](C)NC(=O)OCc1ccccc1 [Lys] (Cbz-Ala-Lys-OMe)  Chymotrypsin (Bos taurus, UniProt P00766)  Esterase rate, Chymotrypsin   1.5 A580 change/min./mg protease
12  COC(=O)CNC(=O)[C@H](C)NC(=O)OCc1ccccc1 [Gly] (Cbz-Ala-Gly-OMe)  Chymotrypsin (Bos taurus, UniProt P00766)  Esterase rate, Chymotrypsin     0 A580 change/min./mg protease
13  COC(=O)[C@@H](NC(=O)[C@H](C)NC(=O)OCc1ccccc1)[C@@H](C)O [Thr] (Cbz-Ala-Thr-OMe)  Chymotrypsin (Bos taurus, UniProt P00766)  Esterase rate, Chymotrypsin                              trace
14  COC(=O)[C@H](CCC(N)=O)NC(=O)[C@H](C)NC(=O)OCc1ccccc1 [Gln] (Cbz-Ala-Gln-OMe)  Chymotrypsin (Bos taurus, UniProt P00766)  Esterase rate, Chymotrypsin   0.5 A580 change/min./mg protease
15  COC(=O)[C@H](Cc1c[nH]c2ccccc12)NC(=O)[C@H](C)NC(=O)OCc1ccccc1 [Trp] (Cbz-Ala-Trp-OMe)  Chymotrypsin (Bos taurus, UniProt P00766)  Esterase rate, Chymotrypsin  27.2 A580 change/min./mg protease
16  COC(=O)[C@H](CC(=O)O)NC(=O)[C@H](C)NC(=O)OCc1ccccc1 [Asp] (Cbz-Ala-Asp-OMe)  Chymotrypsin (Bos taurus, UniProt P00766)  Esterase rate, Chymotrypsin     0 A580 change/min./mg protease
17  COC(=O)[C@@H](NC(=O)[C@H](C)NC(=O)OCc1ccccc1)C(C)C [Val] (Cbz-Ala-Val-OMe)  Chymotrypsin (Bos taurus, UniProt P00766)  Esterase rate, Chymotrypsin     0 A580 change/min./mg protease
18  COC(=O)[C@H](CCSC)NC(=O)[C@H](C)NC(=O)OCc1ccccc1 [Met] (Cbz-Ala-Met-OMe)  Chymotrypsin (Bos taurus, UniProt P00766)  Esterase rate, Chymotrypsin   6.6 A580 change/min./mg protease
19  COC(=O)[C@H](CO)NC(=O)[C@H](C)NC(=O)OCc1ccccc1 [Ser] (Cbz-Ala-Ser-OMe)  Chymotrypsin (Bos taurus, UniProt P00766)  Esterase rate, Chymotrypsin                              trace
20  COC(=O)[C@@H]1CCCN1C(=O)[C@H](C)NC(=O)OCc1ccccc1 [Pro] (Cbz-Ala-Pro-OMe)  Chymotrypsin (Bos taurus, UniProt P00766)  Esterase rate, Chymotrypsin     0 A580 change/min./mg protease
